details: in n-butyl acetate, 318.15 K
metric: solubility (mole fraction)

In: Find the recorded solubility (mole fraction) belonging to `NC(=O)C[C@H](N)C(=O)O.O` and report it.
Out: 0.000114

----------
settings: in ethyl acetate, 298.15 K
metric: solubility (mole fraction)
Answers are plain numbers.

In: Given the compound `NC(=O)C[C@H](N)C(=O)O.O` , what is its reported solubility (mole fraction)?
Out: 3.89e-05

----------
conditions: in isopropanol, 283.15 K
metric: solubility (mole fraction)
One number for each entry.

In: Can you look up the measured solubility (mole fraction) of `NC(=O)C[C@H](N)C(=O)O.O` for me?
Out: 1.26e-05
